Taken from the supplement of paper PMC3334620.

Target: Hap1 (UniProt P0CE41)
Sequence (P0CE41 whole entry): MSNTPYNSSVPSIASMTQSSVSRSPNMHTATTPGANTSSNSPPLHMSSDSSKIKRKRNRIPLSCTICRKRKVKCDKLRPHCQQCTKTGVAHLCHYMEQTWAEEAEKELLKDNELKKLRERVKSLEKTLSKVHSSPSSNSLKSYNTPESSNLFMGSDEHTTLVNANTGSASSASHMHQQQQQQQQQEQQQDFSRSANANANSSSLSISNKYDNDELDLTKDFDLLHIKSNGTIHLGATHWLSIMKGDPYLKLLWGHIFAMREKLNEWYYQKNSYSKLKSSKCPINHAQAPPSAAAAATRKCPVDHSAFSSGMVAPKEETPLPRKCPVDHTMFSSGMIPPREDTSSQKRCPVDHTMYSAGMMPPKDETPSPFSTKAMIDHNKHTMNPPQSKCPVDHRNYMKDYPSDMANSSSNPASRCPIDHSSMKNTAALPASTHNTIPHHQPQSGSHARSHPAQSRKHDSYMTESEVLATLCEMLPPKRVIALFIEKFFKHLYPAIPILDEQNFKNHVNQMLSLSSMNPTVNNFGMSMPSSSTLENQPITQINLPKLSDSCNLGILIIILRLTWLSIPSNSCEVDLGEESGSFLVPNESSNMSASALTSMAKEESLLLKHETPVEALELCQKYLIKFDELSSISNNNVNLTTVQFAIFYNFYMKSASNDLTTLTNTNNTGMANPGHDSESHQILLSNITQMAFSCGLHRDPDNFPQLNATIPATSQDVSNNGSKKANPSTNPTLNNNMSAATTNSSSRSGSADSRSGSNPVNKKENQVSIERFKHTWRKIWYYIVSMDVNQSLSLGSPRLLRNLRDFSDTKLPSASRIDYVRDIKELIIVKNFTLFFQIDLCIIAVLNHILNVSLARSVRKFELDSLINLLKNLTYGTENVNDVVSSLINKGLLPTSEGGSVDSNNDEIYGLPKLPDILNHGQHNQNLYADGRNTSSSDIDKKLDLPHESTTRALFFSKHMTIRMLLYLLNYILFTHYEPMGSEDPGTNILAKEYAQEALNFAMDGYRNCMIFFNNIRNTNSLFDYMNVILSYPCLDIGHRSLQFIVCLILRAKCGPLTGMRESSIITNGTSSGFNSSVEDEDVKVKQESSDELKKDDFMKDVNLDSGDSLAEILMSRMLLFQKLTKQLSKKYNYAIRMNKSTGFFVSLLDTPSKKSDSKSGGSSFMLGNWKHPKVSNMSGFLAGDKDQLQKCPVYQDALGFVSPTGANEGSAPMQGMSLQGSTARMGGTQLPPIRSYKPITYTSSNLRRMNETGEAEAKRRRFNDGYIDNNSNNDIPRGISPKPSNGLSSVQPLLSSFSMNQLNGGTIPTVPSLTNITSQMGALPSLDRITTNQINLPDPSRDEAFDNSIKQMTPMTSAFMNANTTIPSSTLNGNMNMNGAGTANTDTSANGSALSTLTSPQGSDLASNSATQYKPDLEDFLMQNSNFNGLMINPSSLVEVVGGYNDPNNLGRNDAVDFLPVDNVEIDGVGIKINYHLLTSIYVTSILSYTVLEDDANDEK
Experiment: PBM E-score (8-mer binding enrichment) (E-score (-0.5 to 0.5)); higher = stronger / more preferred TF binding
Conditions: protein concentration: 200 nM; construct: GST-DNA-binding domain
The full ranking holds about 33,000 sequences; the median of “E-score (-0.5 to 0.5)” is about -0.053, and the highest 2% start at about 0.37. Many of the other results were omitted from the sample, so the highest values are more common in it than they were.
Everything with PBM E-score lower than 0.06 is N; everything else, including exactly 0.06, is Y.

| sequence | qualitative_label |
| --- | --- |
| CCGCCCGC | Y |
| GAGAGAGA | N |
| ATACCCCC | Y |
| AATTCCGC | Y |
| AAATCGGT | Y |
| TAACCGGA | Y |
| TGCCGGAA | Y |
| TCTGTGAA | N |
| AGTTAGGC | N |
| AATTCCAT | N |
| TATTCCGA | Y |
| GGGTTACA | N |
| AATTCCCT | N |
| TAGTTTCA | N |
| CTCCGGAG | Y |
| TTCCGGAA | Y |
| GAACCGTA | Y |
| ATACCGAT | Y |
| ATCCGGAA | Y |
| ATACCGTA | Y |
| ATAGCCGG | Y |
| CGCCATAA | N |
| CAGGTATG | N |
| AATTCCTG | N |
| GGCATCGA | N |
| CTAGCCGA | Y |
| TTGCAAAA | N |
| AGACCGGC | Y |
| GTGCTTTA | N |
| ATAGCCAG | N |
| GAGAATGC | N |
| GAACCGGA | Y |
| ATAGGGAG | N |
| ATACCGTG | Y |
| CCTCTTCC | N |
| AAGCCCGC | Y |
| CTACCGGA | Y |
| ATACCGGA | Y |
| ATACCGCG | Y |
| ATACCGGC | Y |
| ATACCGGG | Y |
| ATGCGGAA | Y |
| AAGCCCGG | Y |
| ATACCGCA | Y |
| ATACGGAA | Y |

====

Target: Hap1 (UniProt P0CE41)
Experiment: PBM E-score (8-mer binding enrichment) (E-score (-0.5 to 0.5)); higher = stronger / more preferred TF binding
Settings: protein concentration: 200 nM; construct: GST-DNA-binding domain
Over roughly 33,000 sequences, “E-score (-0.5 to 0.5)” has its median near -0.053; the highest 2% begin near 0.37. The list comes from a sample in which the highest values are over-represented; it also holds close analogues and randomly drawn sequences.
I would appreciate it if you labelled entries met when PBM E-score is 0.04 or higher, otherwise not met.

| sequence | qualitative_label |
| --- | --- |
| CTGGTGAC | not met |
| CCTTGAAC | not met |
| CCACCGGA | met |
| TCACCGGA | met |
| GCCTGAAC | not met |
| AGGAGGCC | not met |
| ACACCGGA | met |
| ATAGCCGC | met |
| ACAACTTC | not met |
| CCACCGGG | met |
| CGTATCGC | met |
| ACAAGAGC | not met |
| ATAGCCGA | met |
| ACACCGGC | met |
| CGACCAGA | met |
| CACCACCC | met |
| ACGCCAAA | not met |
| ACTAAAGG | not met |
| TCACCGCA | not met |
| AGTTCTTA | met |
| CCCTACTC | not met |
| ACACCGGT | met |
